# Experiment Summary: Cytotoxicity against mouse macrophages after 72 hrs
# Type: cell-based, Macrophage
# Study Conditions: read-out: LD50
Value Kind: log10 of CC50 at 72 h (log10 of the value in µM)
Please be aware that the numbers have been log10-transformed from CC50 at 72 h in µM.

Exam item: Recorded log10 of CC50 at 72 h of C(/C=C/c1sc(Nc2ccccc2)n[n+]1-c1ccccc1)=C\c1ccc2c(c1)OCO2 , please.
Marked response: 1.59

Exam item: Recorded log10 of CC50 at 72 h of C(=C\c1sc(Nc2ccccc2)n[n+]1-c1ccccc1)/c1ccc2c(c1)OCO2 , please.
Marked response: 0.29

Exam item: Recorded log10 of CC50 at 72 h of O=[N+]([O-])c1cc2c(cc1-c1sc(Nc3ccccc3)n[n+]1-c1ccccc1)OCO2 , please.
Marked response: 0.82

Exam item: Recorded log10 of CC50 at 72 h of O=[N+]([O-])c1cc2c(cc1/C=C/c1sc(Nc3ccccc3)n[n+]1-c1ccccc1)OCO2 , please.
Marked response: 0.03

Exam item: Recorded log10 of CC50 at 72 h of O=C(/C=C/C=C/c1ccc2c(c1)OCO2)N1CCCCC1 [PIPERINE] , please.
Marked response: 1.30
